B1: glmS ribozyme (parent)
chain: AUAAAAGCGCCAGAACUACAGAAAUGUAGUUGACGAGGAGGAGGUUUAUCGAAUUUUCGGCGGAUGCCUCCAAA

variants of: B1; experiment: kcat; higher = faster cleavage; RNA array; details: with glucosamine-6-phosphate
This sample holds only a part of the variants without activity.
kcat below 0.0004 s⁻¹ gives F; kcat at or above it gives T.

{"Mutation Label": "C11U G40C C71U", "Category": "F"}
{"Mutation Label": "C10G G51U C68U C70U", "Category": "F"}
{"Mutation Label": "U47A U65G", "Category": "T"}
{"Mutation Label": "A14C A15G", "Category": "T"}
{"Mutation Label": "U54A", "Category": "T"}
{"Mutation Label": "U56A U57C", "Category": "F"}
{"Mutation Label": "G44C U55G", "Category": "F"}
{"Mutation Label": "G32A A52C", "Category": "F"}
{"Mutation Label": "C16U G51A C61G", "Category": "F"}
{"Mutation Label": "C8A U49C", "Category": "F"}
{"Mutation Label": "G41U U69C", "Category": "F"}
{"Mutation Label": "G44U U54A", "Category": "F"}
{"Mutation Label": "A15G C67G", "Category": "T"}
{"Mutation Label": "C50U U69G C70U", "Category": "F"}
{"Mutation Label": "A42G C68A", "Category": "F"}
{"Mutation Label": "U30C G32A", "Category": "T"}
{"Mutation Label": "G32C U55G", "Category": "F"}
{"Mutation Label": "G29A C67U", "Category": "T"}
{"Mutation Label": "G63A C68A", "Category": "F"}
{"Mutation Label": "U47A A64C", "Category": "F"}
{"Mutation Label": "A39G U55C", "Category": "T"}
